Taken from the METLIN SMRT retention time set (Domingo-Almenara et al. 2019).

Experiment: gradient 5% acetonitrile 3 min, to 50% in 2 min, to 85% in 15 min, held 3 min, 100 µL/min
Conditions: column: Zorbax Extend-C18 2.1 x 50 mm; eluents: water / acetonitrile, 0.1% formic acid
reportedProperty: RP-LC retention time (s)

COc1cccc(OC)c1-c1cc(C(=O)NC2(C(=O)O)C3CC4CC(C3)CC2C4)nn1-c1ccc(C(=O)N(C)CCCN(C)C)cc1C(C)C (centres undefined) ... 860
CCCS(=O)(=O)N1CCC2(CC1)C(=O)N(c1cccc(F)c1)C2c1ccccc1 (centres undefined) ... 1120

P: CCc1nc2cc(-c3noc(Cc4ccc(OC)cc4Cl)n3)ccc2o1
Q: Cc1ccc(-c2nccn3cc(C(=O)N4CCN(CC(C)C)CC4)nc23)cc1
(Q) Which value of RP-LC retention time is smaller, the one for P or the one for Q ? Refer to your chosen entry by its label in the reply.
(A) Q

----------
Assay: gradient 5% acetonitrile 3 min, to 50% in 2 min, to 85% in 15 min, held 3 min, 100 µL/min
Conditions: column: Zorbax Extend-C18 2.1 x 50 mm; eluents: water / acetonitrile, 0.1% formic acid
reportedProperty: RP-LC retention time (s)

CCn1cc(C)c(C(=O)O)c1CC(=O)Nc1cc(C)cc(C)c1 ... 907

a: COc1ccc(S(=O)(=O)NCCCCN2CCOC(c3ccccc3)C2)c(C)c1 (centres undefined)
b: COc1ccc(OC(=O)c2cn(CC(C)C)c(=O)c3ccccc23)cc1
(Q) Kindly identify which of a and b has the larger recorded RP-LC retention time value. // respond with label for picked entry
(A) b

1: COc1cc(NC(=O)Cn2nc3c4ccc(F)cc4ncn3c2=O)cc(OC)c1
2: CCc1nc(-c2csc(S(=O)(=O)N3CCCC(C(=O)Nc4ccc(Cl)cc4C)C3)c2)no1 (centres undefined)
(Q) Hi team, can someone confirm which has the larger RP-LC retention time: 1 or 2 ? Thanks. Selection: enter the item's label.
(A) 2
(2: 1100 s, 1: 715 s)

----------
Assay: gradient 5% acetonitrile 3 min, to 50% in 2 min, to 85% in 15 min, held 3 min, 100 µL/min
Conditions: column: Zorbax Extend-C18 2.1 x 50 mm; eluents: water / acetonitrile, 0.1% formic acid
reportedProperty: RP-LC retention time (s)

Cn1nccc1C(=O)N1CCN(S(=O)(=O)c2ccc3c(c2)oc(=O)n3C)CC1 ... 679
COc1ccc(CC(=O)NC(C)C(=O)Nc2nc3ccccc3[nH]2)cc1Cl (stereo not given) ... 671
O=C(NCC(=O)N1CCN(c2ccccn2)CC1)c1ccc(OC(F)(F)F)cc1 ... 635
CC(C)NC(=O)Nc1ccccc1NC(=O)c1cccnc1 ... 591
O=C(NCc1ccc2c(c1)OCCCO2)c1ccc(Br)cc1 ... 884
COCC(=O)NC1CCC12CCN(S(=O)(=O)C(C)C)CC2 (stereo not given) ... 682
CC(C)CC(=O)N1CCC(C(=O)N2CCCCCCNC(=O)CC2)CC1 ... 640
O=C(CSc1nnc(CNC(=O)c2cccc(C(F)(F)F)c2)o1)NCC1CCCO1 (stereo not given) ... 664
CC(=O)N1c2ccc(S(=O)(=O)NCc3ccc4c(c3)CCN4C(=O)C(C)C)cc2CC1C (stereo not given) ... 801
COC(=O)c1ncn2c1C(=O)N(c1ccc(C)cc1C)C(C)(C(=O)NC1CCCC1)C2 (stereo not given) ... 753

----------
Experiment: gradient 5% acetonitrile 3 min, to 50% in 2 min, to 85% in 15 min, held 3 min, 100 µL/min
Details: column: Zorbax Extend-C18 2.1 x 50 mm; eluents: water / acetonitrile, 0.1% formic acid
reportedProperty: RP-LC retention time (s)

In the examples that follow, each entry is paired with its recorded RP-LC retention time.
Cc1nn2c(CNS(=O)(=O)c3c(C)noc3C)c(C)nc2s1 ... 640
CN1C(=O)[C@H]2CN(Cc3cccc(Br)c3)C[C@H]2C1=O ... 608
CC(C)=C1SC(=O)N(CC(=O)Nc2ccc(S(N)(=O)=O)cc2)C1=O ... 672

1: O=C(c1cccnc1)C1Cc2ccccc2C1=O (stereo not given)
2: CCOc1cccc(C(=O)Nc2nc(-c3ccc(OC)c(Br)c3)cs2)c1
(Q) Param metric = RP-LC retention time; output whichever of 1 , 2 has the minimum value. Pick one and reply with its label.
(A) 1
(1: 884 s, 2: 1280 s)

----------
Test: gradient 5% acetonitrile 3 min, to 50% in 2 min, to 85% in 15 min, held 3 min, 100 µL/min
Settings: column: Zorbax Extend-C18 2.1 x 50 mm; eluents: water / acetonitrile, 0.1% formic acid
reportedProperty: RP-LC retention time (s)

Below: 3 molecules and their reported RP-LC retention time.
C=CCN1C(=O)COc2ccc(-c3csc(NC(=O)c4ccc(C)cc4)n3)cc21 ... 1050
Cc1nc2cccnc2n1CCN1CCN(C(=O)Nc2cccc(Br)c2)CC1 ... 607
O=C(CCC(=O)N1Cc2cccn2-c2ccccc21)NCc1cccc(Cl)c1 ... 957

1: O=C(CSc1ccc(F)cc1)NCC1(c2ccc(F)cc2)CC1
2: O=C(c1cccnc1)N1CCCCC1c1nncn1Cc1ccccc1 (centres undefined)
(Q) I need your help: which of the pair 1 , 2 has higher RP-LC retention time? Return value: the label identifying the chosen record.
(A) 1

----------
Assay: gradient 5% acetonitrile 3 min, to 50% in 2 min, to 85% in 15 min, held 3 min, 100 µL/min
Conditions: column: Zorbax Extend-C18 2.1 x 50 mm; eluents: water / acetonitrile, 0.1% formic acid
reportedProperty: RP-LC retention time (s)

Known results for compounds:
CCN(CC)S(=O)(=O)c1ccc(NC(=O)c2ccc3c(=O)n4c(nc3c2)CCCCC4)cc1 ... 875
Cc1ccc(S(=O)(=O)N2CCCCC2)cc1-c1nnc(-c2ccc(Cl)cc2)o1 ... 1250

A: Cc1ccc(-c2nc3nc(C)cc(N(CCO)CCO)n3n2)cc1
B: CCOc1ccc(-c2noc(Cn3c(=O)n(CC(C)C)c(=O)c4ccccc43)n2)cc1OC
(Q) Given the listed records, identify the one among A and B with higher RP-LC retention time. Output the label that corresponds to your choice.
(A) B
(B: 1270 s, A: 614 s)

P: CCOc1cccc(C2c3[nH]c4ccccc4c3CCN2C(=O)c2ccnn2C)c1 (centres undefined)
Q: CCCS(=O)(=O)N1CCC(N2C[C@H](Oc3ccccc3)[C@@H]2c2ccncc2)CC1
(Q) Given the listed items, does P or Q have the lesser reported RP-LC retention time? // output: label of the selected item
(A) Q

a: Cc1ccc(C)c(N2CCN(C(=O)c3ccc(Cn4cncn4)cc3)CC2)c1
b: COC(=O)c1c(C)[nH]c(C(=O)N2CCC(CC(=O)NCCN3CCCCCC3)CC2)c1C
(Q) Lab log: flag the item ( a or b ) with the smaller RP-LC retention time figure. Please identify the chosen entry by its label.
(A) b

----------
Test: gradient 5% acetonitrile 3 min, to 50% in 2 min, to 85% in 15 min, held 3 min, 100 µL/min
Settings: column: Zorbax Extend-C18 2.1 x 50 mm; eluents: water / acetonitrile, 0.1% formic acid
reportedProperty: RP-LC retention time (s)

Some compounds with recorded RP-LC retention time:
COc1ccc(-c2ccnn2-c2ccc(SCC(N)=O)nn2)cc1 ... 777
CC1=C(c2ccc(Cl)cc2)S(=O)(=O)N=C1N1CCCN(C(=O)c2ccccn2)CC1 ... 765
COc1ccc(-c2nc3cc(C)ccn3c2NC(=O)c2ccc(Br)cc2)cc1 ... 727

P: Cc1ccc(N2CCC(NC(=O)Nc3ccccc3C)C2=O)cc1 (stereo not given)
Q: Cn1cccc1C(CNS(=O)(=O)c1ccc2c(c1)OCCO2)N1CCOCC1 (stereo not given)
(Q) Among P and Q , whose measured RP-LC retention time is the smaller figure? Respond with the label that goes with your answer.
(A) Q
(Q: 563 s, P: 823 s)

A: Cc1cc(C)c(-c2noc(C)n2)c(NC(=O)c2ccccc2Br)n1
B: CC(C)Cn1cc(S(=O)(=O)N2CCN(c3ccccc3F)CC2)c2cccnc21
(Q) Lower RP-LC retention time: A or B ? Respond with the label that goes with your answer.
(A) A
(A: 762 s, B: 1140 s)

----------
Assay: gradient 5% acetonitrile 3 min, to 50% in 2 min, to 85% in 15 min, held 3 min, 100 µL/min
Settings: column: Zorbax Extend-C18 2.1 x 50 mm; eluents: water / acetonitrile, 0.1% formic acid
reportedProperty: RP-LC retention time (s)

These solved cases illustrate the format of a correct answer.
CSc1ccc(CNc2cc(-n3nc(C)cc3C)ncn2)cc1 ... 1000
Cn1cc(C(=O)Nc2ccc(Cl)cc2)c2cccnc21 ... 835
O=S(=O)(Nc1ccc(F)cc1)c1cccnc1Nc1ccc(F)cc1 ... 1060
COc1ccccc1N1CCN(C(=O)C2CCN(c3ncnc4c3oc3ccccc34)CC2)CC1 ... 765
COc1cccc(Nc2nc(C)c(C(=O)Nc3cc(F)cc(F)c3)s2)c1 ... 1040
COc1ccccc1OCc1nc(-c2ccc3ncn(C)c3c2)no1 ... 693
COc1ccc(S(=O)(=O)N2CCC(c3noc(-c4ccncc4)n3)C2)cc1 (centres undefined) ... 816
COc1cccc(-c2ccc(=O)n(CCc3nc(-c4cccc(Br)c4)no3)n2)c1 ... 1080

a: CC1=C(c2ccccc2)S(=O)(=O)N=C1N1CCCN(C(=O)c2cc(C)ccc2C)CC1
b: Cc1cc(Nc2ccc(NC(=O)c3sc(C)nc3C)cc2)nc(N2CCCC2)n1
(Q) // returns a or b , whichever has the lower RP-LC retention time In your reply, give the label of the chosen option.
(A) b
(b: 583 s, a: 870 s)
